The values you see were collected from patent US20160075653A1.

Assay: Measurement of log P values by HPLC on reversed phase columns (methods [a] pH 2.3, [b] pH 2.7, [c] pH 7.8)
Assay type: physicochemical
Details: HPLC on reversed phase columns, method [b], pH 2.7
Readout Type: logP

Before answering, review these 3 worked examples.
COc1c(C(=O)N[C@@H]2CCC[C@@H]2c2ccc(F)c(F)c2)c(C)nn1C (relative stereo): 2.59^[b]
Cn1cc(C(=O)N[C@@H]2CCC[C@@H]2c2ccc(F)c(F)c2)c(=O)[nH]1 (relative stereo): 2.00^[b]
O=C(N[C@@H]1CCC[C@@H]1c1ccc(F)c(F)c1)c1ccccc1OC(F)F (relative stereo): 3.51^[b]

Here is the next item to consider.
input: // query logP value for entry Cn1nc(C(F)(F)F)c(C(=O)N[C@@H]2CCC[C@@H]2c2ccc(F)c(F)c2)c1F (relative stereo)
output: 3.27^[b]
